Values from patent US20250230165A1

SYSTEM_UNDER_TEST: Human Polθ polymerase domain (aa1820-2590) (Homo sapiens, UniProt O75417)
Construct: Human Polθ polymerase domain (aa1820-2590) was expressed in E. coli; made in house; host or cells: E. coli
Sequence (O75417 1820-2590): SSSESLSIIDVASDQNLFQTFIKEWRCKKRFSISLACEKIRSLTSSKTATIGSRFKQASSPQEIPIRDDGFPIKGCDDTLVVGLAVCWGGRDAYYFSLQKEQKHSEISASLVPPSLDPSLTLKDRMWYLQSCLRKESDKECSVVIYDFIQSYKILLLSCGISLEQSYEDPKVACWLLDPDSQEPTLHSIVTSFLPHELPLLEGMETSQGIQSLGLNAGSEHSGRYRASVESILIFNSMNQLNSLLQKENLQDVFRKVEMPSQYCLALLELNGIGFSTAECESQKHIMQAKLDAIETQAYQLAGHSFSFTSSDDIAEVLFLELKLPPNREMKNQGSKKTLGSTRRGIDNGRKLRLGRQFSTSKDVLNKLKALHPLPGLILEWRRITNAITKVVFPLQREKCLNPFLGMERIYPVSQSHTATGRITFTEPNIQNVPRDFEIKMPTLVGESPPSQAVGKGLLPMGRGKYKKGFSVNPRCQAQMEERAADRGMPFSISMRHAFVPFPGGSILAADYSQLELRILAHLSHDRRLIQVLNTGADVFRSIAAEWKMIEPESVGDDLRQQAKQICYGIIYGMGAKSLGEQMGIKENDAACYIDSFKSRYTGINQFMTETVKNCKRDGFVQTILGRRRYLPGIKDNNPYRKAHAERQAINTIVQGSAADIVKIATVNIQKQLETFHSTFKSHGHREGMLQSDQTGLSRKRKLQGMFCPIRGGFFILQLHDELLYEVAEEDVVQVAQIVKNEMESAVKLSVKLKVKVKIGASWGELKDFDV
ASSAY_EXPLANATION: Polθ Polymerase Domain Kinact/KI Assay (PicoGreen)
Type: biochemical
ASSAY_CONTEXT: 0.8 nM Polθ, 100 nM DNA substrate, kobs vs [I] fit for 2-step covalent inhibitor
Provide the reported Kinact/Kl of each item.
Numbers only, in M⁻¹ s⁻¹.

| COMPOUND | READOUT_VALUE |
| --- | --- |
| C=CC(=O)N1C[C@H]2CN(CCN3C[C@H]4CC(=O)N(c5cc(C(F)(F)F)cc(C)n5)[C@@H]4C(=O)N(C)c4cccc(F)c43)CCN2[C@@H](C)C1 [Example 63b] | 190000 |

Please give Kinact/Kl, item by item, for the list that follows.
1. C=C(CN(C)C)C(=O)N1CC(CCCN2C[C@H]3CC(=O)N(c4cc(C(F)(F)F)cc(C)n4)[C@@H]3C(=O)N(C)c3cccc(C)c32)C1 [Example 327]
2. C=CC(=O)N1CC(N2CCO[C@H]3CN(CCN4C[C@H]5CC(=O)N(c6cc(C(F)(F)F)cc(C)n6)[C@@H]5C(=O)N(C)c5cccc(F)c54)C[C@@H]32)C1 (single isomer, unassigned) [Example 22a]
3. C=CC(=O)N1CC2(C1)N[C@H](C)CN(CCN1C[C@H]3CC(=O)N(c4cc(C(F)(F)F)cc(C)n4)[C@@H]3C(=O)N(C)c3cccc(F)c31)C2C (some centres unmarked) [Example 37a]
4. C=CC(=O)N1CCn2cc(CN3C[C@H]4CC(=O)N(c5cc(C(F)(F)F)cc(C)n5)[C@@H]4C(=O)N(C)c4cccc(F)c43)nc2C1 [Example 132]
5. C=CC(=O)N1Cc2cc(CN3C[C@H]4CC(=O)N(c5cc(C(F)(F)F)cc(C)n5)[C@@H]4C(=O)N(C)c4cccc(C)c43)cnc2C1COC (single isomer, unassigned) [Example 235]
6. Cc1cc(C(F)(F)F)cc(N2C(=O)C[C@@H]3CN(CC4CCC(C5CN(C(=O)/C=C/CN(C)C)C5)CC4)c4c(Cl)cccc4N(C)C(=O)[C@H]32)n1 (some centres unmarked) [Example 155]
7. C=CC(=O)N1Cc2nc(CN3C[C@H]4CC(=O)N(c5cc(C(F)(F)F)cc(C)n5)[C@@H]4C(=O)N(C)c4cccc(C)c43)n(CC)c2C1 [Example 314]

Reply text:
1: 3.64e+06; 2: 170000; 3: 1.48e+06; 4: 1.86e+06; 5: 270000; 6: 2.51e+06; 7: 1.74e+06

Please give Kinact/Kl, item by item, for the list that follows.
1. C=C(CN(C)C)C(=O)N1CCC[C@@H]1c1ccc(CN2C[C@H]3CC(=O)N(c4cc(C(F)(F)F)cc(C)n4)[C@@H]3C(=O)N(C)c3cccc(F)c32)cc1 (racemic) [Example 171a]
2. C=CC(=O)N1CCn2nc(CN3C[C@H]4CC(=O)N(c5cc(C(F)(F)F)cc(C)n5)[C@@H]4C(=O)N(C)c4cccc(F)c43)nc2C1 [Example 133]
3. C=CC(=O)NC1CCN(CCN2C[C@H]3CC(=O)N(c4cc(C(F)(F)F)cc(C)n4)[C@@H]3C(=O)N(C)c3cccc(Cl)c32)CC1(F)F (mixture of isomers) [Example 257b]

Reply text:
1. 2.29e+06
2. 1.7e+06
3. 2.56e+06
